FYI, the data here is from paper PMC6277545.

Molecular target: AtpdTPI (Arabidopsis thaliana, UniProt Q9SKP6)
Sequence (Q9SKP6 60-315 limits assumed): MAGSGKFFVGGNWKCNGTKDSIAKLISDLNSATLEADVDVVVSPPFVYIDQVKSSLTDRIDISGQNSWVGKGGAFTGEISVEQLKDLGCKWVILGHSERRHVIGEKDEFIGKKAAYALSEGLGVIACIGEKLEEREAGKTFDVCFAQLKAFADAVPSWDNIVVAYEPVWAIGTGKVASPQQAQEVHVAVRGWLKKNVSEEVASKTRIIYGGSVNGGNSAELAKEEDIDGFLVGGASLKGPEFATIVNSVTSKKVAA
Metric: IC50 (µM)
Numbers only, in µM.

stdin: Recorded IC50 for CSS(C)(=O)=O [S-methyl methanethiosulfonate] , please?
stdout: 18

----------
Molecular target: AtcTPI (Arabidopsis thaliana, UniProt P48491)
Construct: gene CTIMC; cytosolic isoform, purified dimer; expression not described here
Sequence (P48491 whole entry, canonical isoform): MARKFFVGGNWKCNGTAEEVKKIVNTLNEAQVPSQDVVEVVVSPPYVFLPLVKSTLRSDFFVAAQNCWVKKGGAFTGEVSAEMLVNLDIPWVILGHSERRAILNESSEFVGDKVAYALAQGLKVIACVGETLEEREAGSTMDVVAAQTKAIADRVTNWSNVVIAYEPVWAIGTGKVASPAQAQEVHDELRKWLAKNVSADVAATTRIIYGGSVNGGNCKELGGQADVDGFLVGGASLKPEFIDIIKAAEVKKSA
Assay: residual activity after […] h incubation with reagent, coupled assay
Assay type: biochemical
Details: read-out: concentration giving 50% of original activity
Metric: pIC50
Give bare numbers, as −log10 of the molar value.

stdin: Would you kindly share the measured pIC50 for CSS(C)(=O)=O [S-methyl methanethiosulfonate] ?
stdout: 8.30
